Source of measurements: patent US20210179666A1

- Target Or Test System: T1, mouse melanocortin 5 receptor (mouse, UniProt P41149 1-325)
- T1 construct: whole, on cells; also called mMC5R; MC5R
- T1 sequence (P41149 whole entry): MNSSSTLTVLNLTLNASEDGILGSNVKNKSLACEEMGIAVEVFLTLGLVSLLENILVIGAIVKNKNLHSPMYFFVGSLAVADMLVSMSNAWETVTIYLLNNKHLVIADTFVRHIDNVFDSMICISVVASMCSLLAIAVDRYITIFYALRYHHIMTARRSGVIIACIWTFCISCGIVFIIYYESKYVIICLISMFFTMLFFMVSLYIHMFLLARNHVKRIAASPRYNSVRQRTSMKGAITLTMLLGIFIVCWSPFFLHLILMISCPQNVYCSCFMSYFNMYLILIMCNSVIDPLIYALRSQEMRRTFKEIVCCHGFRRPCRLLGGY
- Protocol Description: 125I-NDP-MSH competition, HEK293 cells
pIC50: −log10 of the molar value. Square brackets hold non-standard residues; d marks the D form. Dap = NC[C@H](N)C(=O)O
Measured Metric: pIC50

cyclo(PRYF[Dap]AF[dP]) (Phe112Tyr SNP in the Dap scaffold; also called c[Pro-Arg-Tyr-Phe-Dap-Ala-Phe-DPro]) [ZMK 2-112] | 4.44

[P] cyclo(PRFF[Dap]VF[dP]) (Ala115Val SNP in the Dap scaffold; also called c[Pro-Arg-Phe-Phe-Dap-Val-Phe-DPro]) [ZMK 2-85]
[Q] cyclo(PHFF[Dap]AF[dP]) (Arg111His SNP in the Dap scaffold; also called c[Pro-His-Phe-Phe-Dap-Ala-Phe-DPro]) [ZMK 2-99]
[R] cyclo(PRFFNVF[dP]) (Ala115Val SNP in the Asn scaffold; also called c[Pro-Arg-Phe-Phe-Asn-Val-Phe-DPro]) [ZMK 2-82]
Please list the entries, largest pIC50 first. Returns: the labels arranged in the requested order.
P, Q, R
